Provenance of the data: patent US8410130B2

I'd be grateful if you could share measured pIC50 for these entries.
System: Human colon carcinoma HCT-116 cells
test summary: In vitro cytotoxicity, sulforhodamine B (SRB) assay
Assay type: cell-based
cond: 72-hr incubation
Give bare numbers, as −log10 of the molar value.

CNC(=O)OCc1c(COC(=O)NC)c(-c2ccc(F)cc2)n2c1Cc1ccccc1-2 [DA-1026] :: 6.40
OCc1c(CO)c(-c2ccc(F)cc2)n2c1Cc1ccccc1-2 [DA-1024] :: 5.09
OCc1c(CO)c(-c2ccc(F)c(F)c2)n2c1Cc1ccccc1-2 [DA-1025] :: 4.97
COc1ccc(-c2c(CO)c(CO)c3n2-c2ccc(OC)cc2C3)cc1 [DA-1130] :: 6.21

Ask | # query: pIC50 of entry CNC(=O)OCc1c(COC(=O)NC)c(-c2ccc(F)c(F)c2)n2c1Cc1ccccc1C2 [DA-1113]
Reply | 6.45

---

System: Human mammary carcinoma (MX-1) tumor cells
test summary: In vitro cytotoxicity, sulforhodamine B (SRB) assay
Assay type: cell-based
cond: Homo sapiens, 72-hr incubation
Excerpt: Human colon carcinoma HCT-116 cells, human prostate adenocarcinoma PC-3 and adenocarcinoma SK-OV-3 cells were obtained from American Type Culture Collection (ATCC, Rockville, Md.). Human mammary carcinoma (MX-1) tumor cells were obtained from MSKCC cell bank. […]
pIC50: −log10 of the molar value.
Think of 6 as a floor: if pIC50 stands on it or above, it is fulfilled; beneath it, not fulfilled.

CNC(=O)OCc1c(COC(=O)NC)c(-c2ccc(OC)cc2)n2c1Cc1ccccc1-2 :: not fulfilled

Ask | Could you verify whether the entry COc1cccc(OC)c1-c1c(CO)c(CO)c2n1-c1ccccc1C2 shows pIC50 of no less than 6?
Reply | not fulfilled

Ask | Again, but for Cc1c(CO)c(CO)c2n1-c1ccccc1C2
Reply | fulfilled

Ask | Let us now turn to CC(=O)O[C@H]1C(=O)[C@@]2(C)[C@H]([C@H](OC(=O)c3ccccc3)[C@]3(O)C[C@H](OC(=O)[C@H](O)[C@@H](NC(=O)c4ccccc4)c4ccccc4)C(C)=C1C3(C)C)[C@]1(OC(C)=O)CO[C@@H]1C[C@@H]2O [Taxol, reference compound]
Reply | fulfilled

Ask | How about this compound: COc1ccc(-c2c(CO)c(CO)c3n2-c2ccccc2C3)cc1
Reply | not fulfilled

Ask | Also CNC(=O)OCc1c(COC(=O)NC)c(-c2cc(OC)c(OC)c(OC)c2)n2c1Cc1ccccc1-2 , if possible.
Reply | not fulfilled

Ask | Let us now turn to COc1ccc(-c2c(CO)c(CO)c3n2Cc2ccccc2C3)cc1
Reply | not fulfilled

Ask | Next compound up: CNC(=O)OCc1c(COC(=O)NC)c(-c2c(OC)cccc2OC)n2c1Cc1ccccc1-2
Reply | not fulfilled

Ask | Do the same for CNC(=O)OCc1c(COC(=O)NC)c(-c2ccccc2)n2c1Cc1ccccc1-2 please
Reply | not fulfilled

Ask | Then COc1ccccc1-c1c(CO)c(CO)c2n1-c1ccccc1C2 ?
Reply | not fulfilled

Ask | What do you get for OCc1c(CO)c(-c2ccc(Cl)cc2)n2c1Cc1ccccc1-2 ?
Reply | not fulfilled

Ask | Note, next up: CNC(=O)OCc1c(COC(=O)NC)c2n(c1C)-c1ccccc1C2
Reply | fulfilled

Ask | Entry COc1cc(-c2c(CO)c(CO)c3n2-c2ccccc2C3)cc(OC)c1OC please
Reply | not fulfilled
